measuredOn: Phospholipid hydroperoxide glutathione peroxidase GPX4 (Homo sapiens) (UniProt P36969)
Sequence (P36969 whole entry, looked up): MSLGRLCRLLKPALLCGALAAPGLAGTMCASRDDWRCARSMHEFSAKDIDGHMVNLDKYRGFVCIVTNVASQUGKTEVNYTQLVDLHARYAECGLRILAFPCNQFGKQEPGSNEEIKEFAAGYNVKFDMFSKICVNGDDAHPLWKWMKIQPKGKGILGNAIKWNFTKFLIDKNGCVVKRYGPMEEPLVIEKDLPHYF
methodNotes: Primary qHTS Assay for Inhibitors of Recombinant Selenoprotein Glutathione Peroxidase 4 (GPX4) (AID 1845192); further: nearly all actives have a fitted effect of over 65% in size
conditionsUsed: recombinant GPX4, GR-coupled NADPH fluorescence, 15 min; series mostly up to 50 µM
Results filed as inconclusive are left out. Active and inactive are the calls of the source. The call rests on the fitted dose curve; in most records, active means well fitted inhibition curve with a large enough effect; inconclusive means small, poorly fitted or top-dose-only effect; inactive means flat fitted curve, though single readings scatter.
API: response.call in class 1 (active), class 0 (inactive)

// outcome(item) with item = `N#Cc1ccc2ncnc(NCCc3ccccc3)c2c1`
class 0

Hi, do you know how COC1C(OC(=O)/C=C/C=C/C=C/C=C/C(=O)O)CCC2(CO2)C1C1(C)OC1CC=C(C)C (stereo not given) came out in this test?
class 0

Record lookup: outcome of this test for `Cc1nc(NC(=O)N2CCC[C@H]2C(N)=O)sc1-c1ccnc(C(C)(C)C(F)(F)F)c1` ?
class 0

I'd appreciate the recorded outcome for `Cn1cc(-c2ccc3c(c2)CCN3C(=O)Cc2cccc(C(F)(F)F)c2)c2c(N)ncnc21` from this test.
class 0

Tell me the recorded outcome of this test for CCN(CC)C(=O)C(c1ccccc1)N1CCN(c2ccc(NC(=O)c3ccccc3-c3cccnc3)cc2F)CC1 (stereo not given) .
class 0

GET /call?item= `NCCCC(=O)O` returns the recorded outcome of this test.
class 0

Recorded test outcome, item `NC(N)=NC(=O)c1cnn(-c2cccc3ncccc23)c1C1CC1`
class 0

What was the test verdict on `O=C(O)CCc1nccc2c1[nH]c1ccccc12` ?
class 1

// outcome(item) with item = COc1c(C(O)CC(C)C)ccc2c1C(=O)OCc1cc(C)cc(O)c1O2 (stereo not given)
class 0

Identify the outcome logged in this assay for the compound shown: `C/C1=C\[C@@H](C)C[C@@H](C)[C@@H](Cc2cnco2)OC(=O)/C(C)=C/[C@@H](C)C[C@@H](C)[C@@H](Cc2cnco2)OC1=O`
class 0

Per the assay record, what outcome was assigned to C=C1C(=O)O[C@@H]2C3C(=C(C)[C@@H](O)[C@@H](OC(=O)/C(=C/C)COC(C)=O)[C@@H]12)C(=O)[C@H]1O[C@@]31C (stereo not given in full) ?
class 0

What did this assay record as the result for `C[C@H](Oc1cc(-n2cnc3ccc(CN4CCN(C)CC4)cc32)sc1C(N)=O)c1ccccc1C(F)(F)F` ?
class 0

Could you please tell me the result logged for `Cn1ncc2cc(-c3cnc(N)c(Cl)c3N3CCC4(CCNC4=O)CC3)ccc21` in this assay?
class 0

Hi, do you know how COc1cccc(-c2cc(F)ccc2C2Cc3nc(N)nc(C)c3C(=O)N2)n1 (stereo not given) came out in this test?
class 0

Could you check what this test reported for `Cc1cccc(-c2[nH]ncc2-c2ccc(F)c(-c3cnn(CCO)c3)c2)n1` ?
class 0

Per the assay record, what outcome was assigned to CCC(C)CC(=O)OC1C(=O)C(CO)=CC(O)C1C(C)C (stereo not given) ?
class 0

Which result was noted for this compound in the test: `N#C/C(=C1\Nc2ccccc2S1)c1ccnc(NCCc2cccnc2)n1`
class 0

Called result for `O=C(Nc1cccc2cccnc12)c1ccc(N2C(=O)[C@@H]3C4C=CC(C4)[C@@H]3C2=O)cc1`
class 0

# outcome recorded in this test, key = `COc1ccc(C(=O)Nc2c(Cl)cncc2Cl)cc1OC1CCCC1`
class 0

What classification did `C/C=C/C=C/C(=O)O[C@@H]1C=C2COC(=O)[C@]2(O)[C@@]2(C)CCCC(C)(C)[C@H]12` end up with in this test?
class 0
